System: DLD-1
assay-method-text: Cytotoxicity against human DLD1 cells by XTT reagent based automated microculture tetrazolium assay
Format: functional, cell-based
pIC50: −log10 of the molar value.
property-name: pIC50

• CC(=O)O[C@H](/C=C(\C)CC[C@@H](OC(C)=O)[C@]1(C)CCC(=O)O1)C/C(C)=C/CCc1ccoc1 = 6.22
• CC(=O)O[C@H](CC/C(C)=C/[C@@H](O)C/C(C)=C/CCc1ccoc1)[C@]1(C)CCC(=O)O1 = 7.52
• C/C(=C\[C@@H](O)C/C(C)=C/CCc1ccoc1)CC[C@@H](O)[C@]1(C)CCC(=O)O1 = 7.40
• CC(=O)O[C@H](/C=C(\C)CC[C@@H](O)[C@]1(C)CCC(=O)O1)C/C(C)=C/CCc1ccoc1 = 6.70
